Each entry below lists one item and its recorded log10 of TGI value.
# Tested on: SF-539 CNS
# procedure.details: NCI tumour cell line growth inhibition, 48 h
Form field - Quantity: TGI; Unit: µM; Scale: log10

Record excerpt, results attached:
>>> observed_result("O=C(Nc1ccc(-n2ccc3c(NC(=O)c4ccccc4)ncnc32)cc1)Nc1ccc(Cl)c(C(F)(F)F)c1")
0.59
>>> observed_result("CC(=O)O[C@H]1C[C@H]2[C@@H]([C@H](OC(C)=O)C[C@@H]3CC4(CC[C@@]32C)OOC2(CCCCC2)OO4)[C@@H]2CC[C@H]([C@H](C)CCC(N)=O)[C@@]12C")
1.03
>>> observed_result("C=C(C)[C@@H]1CC[C@]2(C(=O)N3CCN(C)CC3)CC[C@]3(C)[C@H](CC[C@@H]4[C@@]5(C)C/C(=C/c6ccncc6)[C@H](O)C(C)(C)[C@@H]5CC[C@]43C)[C@@H]12")
1.22
>>> observed_result("Nc1nc2ccccc2c2[nH]c3ccccc3c12")
0.53

Note: attention shifts to another entry.
**Query** log10 of TGI of `Clc1ccc(/C=c2\nc(-c3ccccc3)n3c2nc2ccccc23)cc1` on SF-539 CNS?
**Result** 1.72
